Assignment: determine reported Ryegrass, Italian plant response rating for the given compounds.
# Test system: Italian ryegrass
# assay_procedure: Test E preemergence
# Type: in vivo, Lolium multiflorum
# condition_parameters: 62 g ai/ha, scale 0 to 100 (0 no effect, 100 complete control)
# Description: […]
One number for each entry.

Below are some compounds; for each one, tell me its Ryegrass, Italian plant response rating.
1. Fc1cnc(Oc2cccc(C(F)F)c2-n2cc(C(F)(F)F)cn2)nc1
2. NC(=S)c1cccc(Oc2ncc(Cl)cn2)c1-n1cc(Cl)cn1
3. Cc1cnc(Oc2cccc(C#N)c2-n2cc(C(F)(F)F)cn2)nc1
4. N#Cc1cccc(Oc2ncc(Cl)cn2)c1-n1cc(Cl)cn1

Response given:
1: 30; 2: 0; 3: 0; 4: 20

Challenge: Please report the measured Ryegrass, Italian plant response rating for `Cc1cnc(Oc2cccc(C#N)c2-n2cc(C#N)cn2)nc1`
Response given: 0

Hey, just so you know, these numbers are from patent US9695155B2.
